# Test system: HT29 colon
# assay overview: NCI-60 one-dose screen, 48 h (100 = growth as untreated, 0 = no growth, -100 = all killed)
# particulars: 10 µM
Compounds without any hit were thinned out: in the full panel of roughly 83,000, 20% have a hit. Calls of active or inactive are those of the source. The calls were made as follows: active = growth percent below 10; inactive = the rest.
measured quantity: growth

Fill in: growth of N#Cc1ccc(-c2nn(-c3ccc(C(=O)O)cc3)cc2CNc2cccc(Br)c2)cc1 is ___
50.7% (inactive)

Fill in: growth of Cc1cc(=O)oc2cc(OCCCCOc3ccc(/C=C/C(=O)Nc4cccc(Cl)c4)cc3)ccc12 is ___
86.4% (inactive)

Fill in: growth of CC1(C)CC[C@]2(C(=O)Nc3ccccc3)CC[C@]3(C)C(=CC[C@@H]4[C@@]5(C)CC[C@H](N)C(C)(C)[C@@H]5CC[C@]43C)[C@H]2C1 is ___
21.8% (inactive)

Fill in: growth of Cc1ccc(CSc2nc(Cl)c(C#N)c(-c3ccc(F)cc3)n2)cc1 is ___
38.4% (inactive)

Fill in: growth of COc1cnc2c(c1)C(=O)c1c-2n(CCCNCCO)c(=O)c2cc(OC)c(OC)cc12 is ___
12.1% (inactive)

Fill in: growth of Cc1ccc2nc(-c3ccc(-c4nnc(SCC(=O)Nc5ccc(Br)cc5)o4)cc3)[nH]c2c1 is ___
77.5% (inactive)

Fill in: growth of CC1(C)CC[C@]2(C(=O)N3CCOCC3)CC[C@]3(C)C(=CC[C@@H]4[C@@]5(C)CC[C@H](NCO)C(C)(C)[C@@H]5CC[C@]43C)[C@H]2C1 is ___
-60.8% (active)

Fill in: growth of COc1ccc2[nH]c(=O)c(CSc3cccc(N)c3)cc2c1 is ___
75.4% (inactive)

Fill in: growth of O=c1[nH]n(C(=S)N/N=C/c2ccc(F)cc2)c(=O)c2ccccc12 is ___
58.1% (inactive)

Fill in: growth of Cc1cc(C)nc(NS(=O)(=O)c2ccc(N/C(N)=N/c3nccc(-c4cccs4)n3)cc2)n1 is ___
108% (inactive)

Fill in: growth of COc1cccc2nc(Nc3cccc(NC(=O)c4ccc(CN5CCCN(C)CC5)c(C(F)(F)F)c4)c3)ccc12 is ___
-72% (active)

Fill in: growth of Cc1ccc(-c2nc3ccc(C(=O)N=Nc4c(O)[nH]c5ccc([N+](=O)[O-])cc45)cc3[nH]2)cc1 is ___
66.6% (inactive)

Fill in: growth of O=C1Nc2ccc(Cl)cc2/C1=C/c1ccc(OCc2ccc(Br)cc2F)cc1 is ___
40.5% (inactive)

Fill in: growth of CN1CCCN(Cc2ccc(C(=O)Nc3cccc(Nc4ccc5c(O)cccc5n4)c3)cc2C(F)(F)F)CC1 is ___
-55.2% (active)

Fill in: growth of CN(C)c1cccc2c(S(=O)(=O)Nc3cccc(-c4csc(NC(=O)CCCCCN5CCN(c6cc7c(cc6F)C(=O)N(C6CCC(=O)NC6=O)C7=O)CC5)n4)c3)cccc12 (configuration not stated) is ___
92.3% (inactive)

Fill in: growth of COc1ccc(/C=C/C(=O)c2ccc(S(=O)(=O)NCCNc3nc(Nc4ccc(F)cc4)nc(N(C)C)n3)cc2)cc1 is ___
-46.4% (active)

Fill in: growth of CCCCCCCCCCCCCCCCCCCC(=O)NCCc1c[nH]c2ccc(OC(=O)CCCC(=O)OCCOOCCOOCCOOCCOOCCOOCCOOCCOOCCOOCCOOCCOOCCOOCCOC)cc12 is ___
63.4% (inactive)
